This collection of values is drawn from paper PMC4995489.

# reported Kd; entries follow
Target: T1, Staphylokinase (full-length Sak, sakSTAR sequence) (Staphylococcus aureus, UniProt P68802 28-163)
T1 construct: also called wtSak; full Sak; not shown: His6, C-terminal, kept
T1 sequence: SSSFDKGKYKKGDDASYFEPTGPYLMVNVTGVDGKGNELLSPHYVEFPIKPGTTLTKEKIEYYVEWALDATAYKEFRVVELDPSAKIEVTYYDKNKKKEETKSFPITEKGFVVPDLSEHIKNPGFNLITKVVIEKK
Assay: ITC; 200-400 μM peptide titrated into 8 μM Sak or SakΔN10 in the cell; 25 °C; 20 mM HEPES, pH 7.4, no salt; One Set of Sites model; at least two experiments each
Conditions: both partners purified
Bridges are numbered along the chain shown (N, C = ends). Where no end group is shown, it is not given here.
API: value field is a number in µM; no unit string.

[
  {
    "binder": "VRRFPWWWPFLRR-NH2 (Tritrpticin, a cathelicidin derived from porcine neutrophils; the amidated version was used) [Tritrp (C-terminally amidated tritrpticin)]",
    "scale-unit": "µM",
    "Kd": 11.2
  }
]

## Input What value of measured Kd is listed for FKCRRWQWRMKKLGAPSITCVRRAF (disulfide 3-20, Lactoferricin B, the peptide derived by intestinal proteolysis of bovine lactoferrin; also called LfcinB) [Bovine lactoferricin] ?
## Output 27.3
